Give measured Plant response rating, Kochia for each item. Keep answers brief.
Test system: kochia
Run description: Test C pre-/postemergence test
Type: in vivo, Kochia scoparia
Experimental conditions: Preemergence, 31 g ai/ha; scale 0 to 100 (0 no effect, 100 complete control)
Provide a numeric answer; units are not to be included.

IN: What does the record list as Plant response rating, Kochia for C#CCOc1c(C[S+]([O-])c2cccc[n+]2[O-])c(C(F)(F)F)nn1C (stereo not drawn) ?
OUT: 70

IN: Param item: Cn1nc(C(F)(F)F)c(C[S+]([O-])c2ccc(Cl)c[n+]2[O-])c1OCC(F)(F)F (racemic)
OUT: 85

IN: Now try CCn1nc(C(F)(F)F)c(C[S+]([O-])c2cc(C)cc[n+]2[O-])c1OCC(F)(F)F (racemic) .
OUT: 100

* * *

Tested on: crabgrass
Run description: Test A pre-/postemergence greenhouse test
Format: in vivo, Digitaria sanguinalis
Experimental conditions: Postemergence, 500 g ai/ha; 0 to 100 scale, 0 is no effect, 100 is complete control
Readout: Crabgrass, Large plant response rating
A bare number is all that is needed in reply.

IN: Given Cn1nc(OC(F)F)c(C[S+]([O-])c2cccc[n+]2[O-])c1C(F)(F)F (stereo not shown) [Compound 74] , state its recorded Crabgrass, Large plant response rating.
OUT: 80

IN: And then Cn1nc(C(F)(F)F)c(C[S+]([O-])c2ccc(Cl)c[n+]2[O-])c1OCC(F)(F)C(F)(F)F (stereo not shown) [Compound 89] , what is it?
OUT: 90

IN: Follow-up item: Cn1nc(C(F)(F)F)c(CS(=O)(=O)c2cc(C3CC3)cc[n+]2[O-])c1OC(F)F [Compound 118]
OUT: 80

IN: Try this compound too: CC(Oc1c(C[S+]([O-])c2ccc(Cl)c[n+]2[O-])c(C(F)(F)F)nn1C)C(F)(F)F (stereo not shown) [Compound 87]
OUT: 90

IN: Now try Cn1nc(C(F)(F)F)c(C[S+]([O-])c2cc(Br)cc[n+]2[O-])c1Cl (racemic) [Compound 35] .
OUT: 80

IN: # iterate: CC(c1c(C(F)(F)F)nn(C)c1OC(F)F)S(=O)(=O)c1cc(C(C)(C)C)cc[n+]1[O-] (racemic) [Compound 26]
OUT: 40

IN: Queued: Cn1nc(C(F)(F)F)c(C[S+]([O-])c2cc(C(C)(C)C)cc[n+]2[O-])c1OC(F)F (racemic) [Compound 24]
OUT: 60

IN: Try this compound next: Cn1nc(C(F)(F)F)c(CS(=O)(=O)c2cccc[n+]2[O-])c1Cl [Compound 9]
OUT: 90

IN: Now this one: C#CCOc1c(CS(=O)(=O)c2cccc[n+]2[O-])c(C(F)(F)F)nn1C [Compound 103]
OUT: 90

IN: One more compound: CC(c1c(C(F)(F)F)nn(C)c1OC(F)F)S(=O)(=O)c1cccc[n+]1[O-] (stereo not shown) [Compound 5]
OUT: 90

IN: Try this compound next: CCc1cc[n+]([O-])c([S+]([O-])Cc2c(C(F)(F)F)nn(C)c2OCC(F)(F)F)c1 (stereo not shown) [Compound 59]
OUT: 90

IN: Now try Cc1cc[n+]([O-])c([S+]([O-])Cc2c(C(F)(F)F)nn(C)c2OC(F)F)c1 (stereo not shown) [Compound 1] .
OUT: 90

IN: Note, next up: Cn1nc(C(F)(F)F)c(CS(=O)(=O)c2cc(C(C)(C)C)cc[n+]2[O-])c1OC(F)F [Compound 25]
OUT: 70

IN: And the next one, CCCc1cc[n+]([O-])c([S+]([O-])Cc2c(C(F)(F)F)nn(C)c2OCC(F)(F)F)c1 (stereo not shown) [Compound 114] ?
OUT: 80

IN: Try this compound next: C#CCOc1c(C[S+]([O-])c2cccc[n+]2[O-])c(C(F)(F)F)nn1C (stereo not shown) [Compound 76]
OUT: 90

IN: What about Cn1nc(C(F)(F)F)c(C[S+]([O-])c2cccc[n+]2[O-])c1OC(F)F (stereo not shown) [Compound 3] ?
OUT: 90

IN: Now this one: Cc1cc[n+]([O-])c(S(=O)(=O)Cc2c(C(F)(F)F)nn(C)c2OCC(F)F)c1 [Compound 94]
OUT: 90

IN: Input Cn1nc(C(F)(F)F)c(C[S+]([O-])c2ccc(Cl)c[n+]2[O-])c1OC(F)F (stereo not shown) [Compound 6]
OUT: 90

IN: One more compound: O=S(=O)(Cc1c(C(F)(F)F)nn(CC(F)(F)F)c1Cl)c1ccc(Cl)c[n+]1[O-] [Compound 50]
OUT: 70

IN: Same question for Cn1nc(C(F)(F)F)c(C(Cl)S(=O)(=O)c2cccc[n+]2[O-])c1OCC(F)(F)F (racemic) [Compound 36] please.
OUT: 80

IN: What do you have for Cn1nc(C(F)(F)F)c(CS(=O)(=O)c2cc(F)cc[n+]2[O-])c1Cl [Compound 41] ?
OUT: 0

IN: Now this one: Cn1nc(C(F)(F)F)c(C[S+]([O-])c2ccc(Br)c[n+]2[O-])c1OC(F)F (racemic) [Compound 16]
OUT: 90

IN: Try the compound Cc1cc[n+]([O-])c([S+]([O-])Cc2c(C(F)(F)F)nn(CC(F)(F)F)c2Cl)c1 (stereo not shown) [Compound 48]
OUT: 70

IN: How about [O-][n+]1cc(Cl)ccc1[S+]([O-])Cc1c(C(F)(F)F)nn(CC(F)(F)F)c1Cl (stereo not shown) [Compound 47] ?
OUT: 90

IN: And for Cc1cc[n+]([O-])c(S(=O)(=O)Cc2c(C(F)(F)F)nn(C)c2OCC(F)(F)C(F)(F)F)c1 [Compound 98] ?
OUT: 70

IN: Item: Cn1nc(C(F)(F)F)c(CS(=O)(=O)c2cccc[n+]2[O-])c1OCC(F)(F)F [Compound 29]
OUT: 90

IN: CC(c1c(C(F)(F)F)nn(C)c1Cl)S(=O)(=O)c1ccc(Cl)c[n+]1[O-] (racemic) [Compound 40] ?
OUT: 80

IN: // next record CCn1nc(C(F)(F)F)c(C[S+]([O-])c2cc(C)cc[n+]2[O-])c1OCC(F)(F)F (racemic) [Compound 66]
OUT: 90

IN: How about CC(C)c1cc[n+]([O-])c(S(=O)(=O)Cc2c(C(F)(F)F)nn(C)c2OC(F)F)c1 [Compound 110] ?
OUT: 90

IN: Try this compound next: CCCc1cc[n+]([O-])c(S(=O)(=O)Cc2c(C(F)(F)F)nn(C)c2OCC(F)(F)F)c1 [Compound 115]
OUT: 70

IN: Likewise for Cn1nc(C(F)(F)F)c(CS(=O)(=O)c2cc(C(C)(C)C)cc[n+]2[O-])c1OCC(F)(F)F [Compound 72] ?
OUT: 60
